- Experimental protocol: CREB reporter modulators under forskolin, primary screen, cell-based, PC12, CRE-LacZ reporter, forskolin-stimulated (AID 1146);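 also: PC12 cells with 6xCRE LacZ reporter stimulated by forskolin 10 µM; beta-galactosidase reporter signal reflecting CREB driven transcription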
- Condition: luminescence, 4.5 h, higher = more signal, called active from +8 up or from −8 down
Measured attribute: z-score
Output: the number by itself.

1) COC(=O)[C@@]1(Cc2ccc(F)cc2)[C@H]2c3cc(C(=O)N(C)C)n(Cc4ccccc4)c3C[C@H]2CN1C(=O)c1ccccc1    1.42
2) [N-]=[N+]=Nc1ccccc1[C@@H]1OC(c2ccc(OCCCO)cc2)=N[C@]1(CCS(=O)(=O)c1ccccc1)C(N)=O    -1.09

Next, consider the following compound.
# input Indicate the recorded z-score value for this compound: "COc1ccc([Si](C)(C)[C@H]2[C@H](CC(=O)N3Cc4ccccc4C[C@H]3CO)O[C@@]3(C(=O)N(Cc4cccc(N5CCC5=O)c4)c4ccccc43)[C@@H]2C)cc1"
# output -0.86

---

- Experimental protocol: basal HepG2 mitochondrial membrane potential changes, profiling panel, cell-based, JC-1 fluorescence, 24 h, 100 nL compound (AID 1167); also: test concentration not given here
- Condition: higher = more signal
# if value of z-score reaches 0.9, tag class 1; if it stays below, tag class 0

Reference set (3 entries):
1. [N-]=[N+]=Nc1ccccc1[C@H]1OC(c2ccc(OCCCO)cc2)=N[C@@]1(CCS(=O)(=O)c1ccccc1)C(N)=O    class 0
2. O=C1C2C=CC(C(O)c3cc(C(F)(F)F)cc(C(F)(F)F)c3)N(n3cnnc3)C2C(=O)N1Cc1ccccc1 (stereo not given)    class 0
3. CCOC(=O)C1=CC[C@@H](c2ccccc2)N(S(=O)(=O)c2ccc(C)cc2)[C@H]1c1ccccc1C    class 1

# input Entry CC1CC/C=C\[C@H]2OC34C=CCN(Cc5ccccc5)C(=O)[C@H]3N(CCCO)C(=O)[C@@H]4C2C(=O)O1 (stereo not given in full) : is its z-score no less than 0.9?
# output class 0

---

- Assay system: Torsin-1A-interacting protein 1 (Homo sapiens) (UniProt Q5JTV8)
- Sequence (Q5JTV8 whole entry, looked up): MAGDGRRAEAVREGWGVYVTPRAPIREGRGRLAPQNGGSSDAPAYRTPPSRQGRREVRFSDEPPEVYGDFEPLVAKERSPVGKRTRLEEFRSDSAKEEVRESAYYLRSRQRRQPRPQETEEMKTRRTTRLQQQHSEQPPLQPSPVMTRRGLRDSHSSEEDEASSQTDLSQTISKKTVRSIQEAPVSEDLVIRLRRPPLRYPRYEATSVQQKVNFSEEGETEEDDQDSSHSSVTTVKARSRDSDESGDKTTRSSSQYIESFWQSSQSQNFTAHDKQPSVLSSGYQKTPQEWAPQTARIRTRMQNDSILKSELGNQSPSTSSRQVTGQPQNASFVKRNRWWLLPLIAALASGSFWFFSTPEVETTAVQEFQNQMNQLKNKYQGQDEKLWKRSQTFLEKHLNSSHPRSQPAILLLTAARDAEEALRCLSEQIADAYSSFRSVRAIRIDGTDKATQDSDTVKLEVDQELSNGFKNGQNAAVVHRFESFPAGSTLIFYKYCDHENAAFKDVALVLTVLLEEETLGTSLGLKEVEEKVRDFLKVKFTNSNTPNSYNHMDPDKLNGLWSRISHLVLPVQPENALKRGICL
- Experimental protocol: LAP1 binders from COS7 cell lysate, primary screen, small-molecule microarray, 635/667 nm fluorescence (AID 1116)
- Condition: COS7-hLAP1 lysate binding, 635 nm fluorescence, higher = more signal
Measured attribute: composite z-score

1) COc1cc2c(cc1O)C(c1cccs1)N(C)CC2 (stereo not given)    -0.205
2) CC(C)[Si](C#Cc1ccc(Oc2ccccc2)cc1)(O[Si](C#Cc1ccc(Oc2ccccc2)cc1)(C(C)C)C(C)C)C(C)C    0.0811
3) CC(C)C(O)C1C=CC2C(=O)N(c3ccccc3)C(=O)C2N1Nc1ccc([N+](=O)[O-])cc1 (stereo not given)    1.34

# input Indicate the recorded composite z-score value for this molecule: "[N-]=[N+]=NCc1ccccc1[C@@H]1OC(c2ccc(OCCCO)cc2)=N[C@]1(Cc1ccccc1)C(N)=O"
# output -0.402

# input Indicate the recorded composite z-score value for this molecule: "CC[C@@H]1C=C(C(=O)O)[C@H](c2ccc(Br)cc2)N1S(=O)(=O)c1ccc(C)cc1"
# output 0.532

---

- Assay system: Focal adhesion kinase 1 (Homo sapiens)
- Experimental protocol: small-molecule microarray binders of FAK, primary screen, biochemical, 635/667 nm fluorescence, BSA, DTT (AID 1130);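 also: composite of spot emission at 667 nm and signal to noise over triplicate slides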
- Condition: PTK2 binding, 635 nm fluorescence, higher = more signal
# if value of composite z-score reaches 0.5, tag Criterion met; if it stays below, tag Criterion not met

Reference set (5 entries):
1. C=C(C)[C@@H]1CC=C(C(O)C2C=CC3C(=O)N(C)C(=O)C3N2Nc2ccccc2)CC1 (stereo not given in full)    Criterion not met
2. COC(=O)C[C@H]1O[C@]2(C(=O)N(C)c3ccccc32)[C@@H](C)[C@@H]1[Si](C)(C)F    Criterion not met
3. C=C[C@@H](COC(=O)OC(C)(C)C)N(Cc1ccc(OC)cc1)S(=O)(=O)c1ccc(Br)cc1    Criterion not met
4. [N-]=[N+]=NCc1ccccc1C[C@]1(C(=O)N2CCCCC2)N=C(c2ccc(OCCCO)cc2)O[C@H]1c1ccccc1N=[N+]=[N-]    Criterion met
5. CC(C)[Si]1(C(C)C)O[C@@H](c2ccccc2)c2cc(-c3ccc(-c4ccc(Cl)c(Cl)c4)o3)nc(-c3ccccc3)c21    Criterion not met

# input Entry "C=CCN1C(=O)[C@]2(O[C@H](CCn3cc([C@H](O)c4ccccc4)nn3)[C@@H]([Si](C)(C)c3ccc(OC)cc3)[C@@H]2C)c2cc(N3CCC3=O)ccc21" : is its composite z-score no less than 0.5?
# output Criterion not met

# input Entry "C=CC[C@@]12N=C(c3ccc(OCCCO)cc3)O[C@@H]1c1ccccc1N(C)C2=O" : is its composite z-score no less than 0.5?
# output Criterion not met

# input Entry "COC(=O)[C@@]1(Cc2ccc(OC)cc2)[C@H]2c3cc(C(=O)N(C)C)n(Cc4ccc(S(C)(=O)=O)cc4)c3C[C@H]2CN1C(=O)c1ccccc1" : is its composite z-score no less than 0.5?
# output Criterion met

# input Entry CC(C)C[C@@H]1NC(=O)[C@H](C(C)C)NC(=O)[C@@]23C(=O)N[C@@H](Cc4ccccc4)C2[C@H](C)[C@@]2(C)O[C@H]2C3/C=C/CC/C=C/CNC1=O (stereo not given in full) : is its composite z-score no less than 0.5?
# output Criterion not met
